- Assay System: Transcriptional enhancer factor TEF-3 (Homo sapiens)
- Sequence (Q15561 whole entry, the tested form may be a part): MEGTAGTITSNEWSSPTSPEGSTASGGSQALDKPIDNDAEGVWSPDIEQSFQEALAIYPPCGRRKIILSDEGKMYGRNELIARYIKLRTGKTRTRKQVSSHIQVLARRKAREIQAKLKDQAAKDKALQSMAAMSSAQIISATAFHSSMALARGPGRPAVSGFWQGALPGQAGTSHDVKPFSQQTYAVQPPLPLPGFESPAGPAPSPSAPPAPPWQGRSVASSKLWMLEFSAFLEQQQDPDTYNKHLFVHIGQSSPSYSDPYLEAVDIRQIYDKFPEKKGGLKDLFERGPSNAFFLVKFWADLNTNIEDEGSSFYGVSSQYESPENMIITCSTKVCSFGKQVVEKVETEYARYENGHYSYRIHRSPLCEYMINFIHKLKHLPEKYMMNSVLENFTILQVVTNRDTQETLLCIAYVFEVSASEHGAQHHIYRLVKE
- Test: Inhibition of CPM binding to N-terminal His6-tagged human TEAD4 (217 to 434 residues) expressed in Escherichia coli BL21-CodonPlus (DE3)-RIPL cells preincubated for 10 mins followed by CPM addition and measured after 1 hr by fluorescence assay
- Recorded Conditions: read-out: IC50
Assay Metric: IC50 (µM)
Form entry: value (µM) — number only.

Answered examples (2):
O=c1cc(CO)oc(C(Nc2ccccn2)c2ccccc2F)c1O (stereo unspecified) : 3.2
O=c1cc(CO)oc(C(Nc2cccc(F)c2)c2ccccn2)c1O (stereo unspecified) : 8.7

We next turn to a different molecule, shown below.
IN: Give recorded IC50. O=c1cc(CO)oc(C(Nc2nccs2)c2ccc(F)cc2)c1O (stereo unspecified)
OUT: 43.1
